- system.under.test: UniProt:P49840
- Sequence (P49840 whole entry, looked up): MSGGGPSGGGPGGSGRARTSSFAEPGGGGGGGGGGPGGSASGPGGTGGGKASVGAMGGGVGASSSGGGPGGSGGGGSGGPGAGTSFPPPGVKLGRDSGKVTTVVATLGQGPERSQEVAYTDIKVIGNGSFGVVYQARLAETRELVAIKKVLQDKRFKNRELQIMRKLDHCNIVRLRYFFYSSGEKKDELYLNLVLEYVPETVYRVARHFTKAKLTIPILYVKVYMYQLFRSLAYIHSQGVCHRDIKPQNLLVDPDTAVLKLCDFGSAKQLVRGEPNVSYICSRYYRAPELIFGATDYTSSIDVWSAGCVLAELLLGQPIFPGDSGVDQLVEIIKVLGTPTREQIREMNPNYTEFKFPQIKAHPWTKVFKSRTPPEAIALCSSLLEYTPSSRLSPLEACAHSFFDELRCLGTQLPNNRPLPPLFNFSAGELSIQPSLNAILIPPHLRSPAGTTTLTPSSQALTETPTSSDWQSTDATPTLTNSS
- test.details: radiometric filter-binding kinase assay, Kinase HotSpot
- measurement.conditions: compound 0.5 µM; ATP 10 µM
Consider the following compounds and their measured residual activity readings.
Please reply with the bare figure in % and do not write the unit itself.

- compound.structure: "c1ccc2c(-c3ccncc3)c[nH]c2c1"
  observed.result: 103
- compound.structure: "CC(C)(C)c1cc(C=C(C#N)C#N)cc(Br)c1O"
  observed.result: 104
- compound.structure: "COc1cc2ncnc(Nc3ccc(Oc4ccccc4)cc3)c2cc1OC"
  observed.result: 97
- compound.structure: "Ic1cccc(CSc2nnc(-c3ccncc3)o2)c1"
  observed.result: 42.7
- compound.structure: "COc1ccc2c(c1)/C(=C/c1cnc[nH]1)C(O)=N2"
  observed.result: 26.2

Name the recorded residual activity of the compound listed here: `CS(=O)(=O)CCNCc1ccc(-c2ccc3ncnc(Nc4ccc(OCc5cccc(F)c5)c(Cl)c4)c3c2)o1`
105

Name the recorded residual activity of the compound listed here: `O=C1NC(=O)c2c1c1c3ccccc3[nH]c1n1cncc21`
10.4

Name the recorded residual activity of the compound listed here: `NC(=O)c1cccc(-c2cc(Nc3ccc(OC(F)(F)F)cc3)ncn2)c1`
93.9

Name the recorded residual activity of the compound listed here: `N#C/C(=C\c1ccc(O)c(O)c1)C(=O)NCc1ccccc1`
96.5

----------
- system.under.test: CDK6 CCND3 (human) (UniProt P30281+Q00534)
- Sequence (P30281 whole entry, looked up): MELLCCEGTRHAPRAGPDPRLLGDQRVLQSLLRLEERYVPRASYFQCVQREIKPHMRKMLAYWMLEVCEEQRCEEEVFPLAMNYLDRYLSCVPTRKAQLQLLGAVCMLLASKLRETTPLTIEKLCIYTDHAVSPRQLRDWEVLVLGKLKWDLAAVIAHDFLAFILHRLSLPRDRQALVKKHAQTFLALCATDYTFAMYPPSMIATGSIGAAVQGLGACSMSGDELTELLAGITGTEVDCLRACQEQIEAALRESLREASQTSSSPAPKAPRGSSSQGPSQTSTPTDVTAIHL
- Sequence (Q00534 whole entry, looked up): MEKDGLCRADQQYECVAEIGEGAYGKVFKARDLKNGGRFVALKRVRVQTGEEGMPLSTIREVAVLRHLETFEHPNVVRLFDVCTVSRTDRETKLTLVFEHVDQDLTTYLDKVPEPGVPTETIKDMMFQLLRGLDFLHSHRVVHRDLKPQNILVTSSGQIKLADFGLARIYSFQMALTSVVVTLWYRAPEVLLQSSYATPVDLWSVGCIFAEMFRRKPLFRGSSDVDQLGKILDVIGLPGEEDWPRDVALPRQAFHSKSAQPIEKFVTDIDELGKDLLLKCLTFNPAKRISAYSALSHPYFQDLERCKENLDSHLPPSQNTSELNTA
- test.details: radiometric filter-binding kinase assay, Kinase HotSpot
- measurement.conditions: compound 0.5 µM; ATP 10 µM
value.kind: residual activity (%)
Please reply with the bare figure in % and do not write the unit itself.

// known answers, use as guide
- compound.structure: "COc1cc(Nc2c(C#N)cnc3cc(OCCCN4CCN(C)CC4)c(OC)cc23)c(Cl)cc1Cl"
  value.kind: "residual activity"
  observed.result: 122
- compound.structure: "CCCCc1c(-c2ccc(OC)cc2)[nH]c2nccnc12"
  value.kind: "residual activity"
  observed.result: 79.7
- compound.structure: "COc1cc2ncnc(Nc3ccc(Oc4ccccc4)cc3)c2cc1OC"
  value.kind: "residual activity"
  observed.result: 108

Name the recorded residual activity of the compound listed here: `O=C1C(Cl)=C(N2C(=O)CCC2=O)C(=O)c2ccccc21`
99.2

Name the recorded residual activity of the compound listed here: `CC(C)(C)c1cc(C=C(C#N)C#N)cc(Br)c1O`
89.3

----------
- system.under.test: FGFR1 (human) (UniProt P11362)
- Sequence (P11362 whole entry, looked up): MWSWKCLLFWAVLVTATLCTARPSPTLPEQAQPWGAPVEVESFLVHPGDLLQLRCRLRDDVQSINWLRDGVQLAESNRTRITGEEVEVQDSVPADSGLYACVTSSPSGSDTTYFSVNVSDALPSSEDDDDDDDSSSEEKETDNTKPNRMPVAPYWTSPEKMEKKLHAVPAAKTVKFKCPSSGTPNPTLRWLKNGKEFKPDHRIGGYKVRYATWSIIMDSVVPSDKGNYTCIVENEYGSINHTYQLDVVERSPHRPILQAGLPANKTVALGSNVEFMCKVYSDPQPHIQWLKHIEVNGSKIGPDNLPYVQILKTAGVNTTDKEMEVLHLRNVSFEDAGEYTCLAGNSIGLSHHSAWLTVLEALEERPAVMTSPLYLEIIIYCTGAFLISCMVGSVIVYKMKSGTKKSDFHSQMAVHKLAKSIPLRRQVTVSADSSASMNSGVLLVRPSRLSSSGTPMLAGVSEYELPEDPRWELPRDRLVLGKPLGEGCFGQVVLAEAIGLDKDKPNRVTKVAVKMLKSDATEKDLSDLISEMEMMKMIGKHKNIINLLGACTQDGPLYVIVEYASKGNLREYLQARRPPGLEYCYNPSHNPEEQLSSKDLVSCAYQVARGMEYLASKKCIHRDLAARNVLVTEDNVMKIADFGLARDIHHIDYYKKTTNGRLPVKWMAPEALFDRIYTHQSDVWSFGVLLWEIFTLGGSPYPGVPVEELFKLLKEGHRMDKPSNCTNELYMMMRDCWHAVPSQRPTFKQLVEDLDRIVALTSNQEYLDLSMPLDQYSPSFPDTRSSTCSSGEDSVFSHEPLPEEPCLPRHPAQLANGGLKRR
- test.details: radiometric filter-binding kinase assay, Kinase HotSpot
- measurement.conditions: compound 0.5 µM; ATP 10 µM
value.kind: residual activity (%)
Please reply with the bare figure in % and do not write the unit itself.

// known answers, use as guide
- compound.structure: "Cn1c2ccccc2c2c3c(c4c5ccccc5n(CCC#N)c4c21)CNC3=O"
  system.under.test: "FGFR1 (human) (UniProt P11362)"
  units.of.measure: "%"
  residual activity: 63.3
- compound.structure: "COc1ccc(C(=O)Nc2sc3c(c2C(N)=O)CCCC3)cc1OC"
  system.under.test: "FGFR1 (human) (UniProt P11362)"
  units.of.measure: "%"
  residual activity: 94.8
- compound.structure: "O=C1c2ccccc2-c2nc3nnnn3nc21"
  system.under.test: "FGFR1 (human) (UniProt P11362)"
  units.of.measure: "%"
  residual activity: 24.2
- compound.structure: "COc1cc2ncnc(Nc3ccc(OCc4ccccc4)cc3)c2cc1OC"
  system.under.test: "FGFR1 (human) (UniProt P11362)"
  units.of.measure: "%"
  residual activity: 91.3
- compound.structure: "N#Cc1c[nH]c2c[nH]/c(=N\\Cc3cccnc3)cc2/c1=N\\c1ccc(F)c(Cl)c1"
  system.under.test: "FGFR1 (human) (UniProt P11362)"
  units.of.measure: "%"
  residual activity: 83.4

Consider the record given below.
Name the recorded residual activity of the compound listed here: `Cc1cncc2cccc(S(=O)(=O)N3CCCN(C(=O)CN)C[C@H]3C)c12`
85.7

----------
- system.under.test: PRKG2 (human)
- test.details: radiometric filter-binding kinase assay, Kinase HotSpot
- measurement.conditions: compound 0.5 µM; ATP 10 µM
Label condition met when residual activity is at or above 90%; anything below gets condition not met.

- compound.structure: "CCCCc1c(-c2ccc(OC)cc2)[nH]c2nccnc12"
  qualitative.label: "condition met"
- compound.structure: "N#C/C(=C\\c1ccc(O)c(O)c1)C(=O)NCc1ccccc1"
  qualitative.label: "condition met"
- compound.structure: "Fc1ccc(-c2nc3n(c2-c2ccncc2)CCS3)cc1"
  qualitative.label: "condition met"
- compound.structure: "COc1ccc2c(c1)c(C1=C(c3c[nH]c4ccccc34)C(=O)NC1=O)cn2CCCN(C)C"
  qualitative.label: "condition not met"
- compound.structure: "Cc1nc(-c2ccccc2)c(-c2ccncc2)o1"
  qualitative.label: "condition not met"
- compound.structure: "COc1ccc(C(=O)Nc2sc3c(c2C(N)=O)CCCC3)cc1OC"
  qualitative.label: "condition met"

Would you say `CN(C)c1ccc(/C=C2\C(=O)Nc3ccccc32)cc1` shows residual activity at minimum 90%?
condition met

Would you say `Ic1cccc(CSc2nnc(-c3ccncc3)o2)c1` shows residual activity at minimum 90%?
condition met

Would you say `Cc1cccc(-c2nc(C(C)(C)C)[nH]c2-c2ccc3c(c2)OCO3)n1` shows residual activity at minimum 90%?
condition met

Would you say `O=C1c2ccccc2-c2nc3nnnn3nc21` shows residual activity at minimum 90%?
condition met

Would you say `COc1ccc2c(c1)/C(=C/c1cnc[nH]1)C(O)=N2` shows residual activity at minimum 90%?
condition met

----------
- system.under.test: RIPK2 (human)
- test.details: radiometric filter-binding kinase assay, Kinase HotSpot
- measurement.conditions: compound 0.5 µM; ATP 10 µM
# if measured residual activity < 90%: 1 (yes)  # else: 0 (no)

residual activity under 90%? Item: `COc1ccc2c(c1)c(C1=C(c3c[nH]c4ccccc34)C(=O)NC1=O)cn2CCCN(C)C`
1 (yes)

residual activity under 90%? Item: `Cc1cncc2cccc(S(=O)(=O)N3CCCN(C(=O)CN)C[C@H]3C)c12`
0 (no)

residual activity under 90%? Item: `O=C1c2ccccc2-c2nc3nnnn3nc21`
0 (no)

residual activity under 90%? Item: `O=C1Nc2ccc(Br)cc2/C1=C\c1cc2c([nH]1)CCCC2`
1 (yes)

residual activity under 90%? Item: `CS(=O)(=O)CCNCc1ccc(-c2ccc3ncnc(Nc4ccc(OCc5cccc(F)c5)c(Cl)c4)c3c2)o1`
0 (no)

----------
Consider the following molecules and their measured residual activity readings.
- system.under.test: CSNK1D (human)
- test.details: radiometric filter-binding kinase assay, Kinase HotSpot
- measurement.conditions: compound 0.5 µM; ATP 10 µM
Please reply with the bare figure in % and do not write the unit itself.

// known answers, use as guide
- compound.structure: "CN(C)c1ccc(/C=C2\\C(=O)Nc3ccccc32)cc1"
  system.under.test: "CSNK1D (human)"
  units.of.measure: "%"
  residual activity: 69
- compound.structure: "COc1cc2ncnc(Nc3ccc(Oc4ccccc4)cc3)c2cc1OC"
  system.under.test: "CSNK1D (human)"
  units.of.measure: "%"
  residual activity: 106
- compound.structure: "Cn1c2ccccc2c2c3c(c4c5ccccc5n(CCC#N)c4c21)CNC3=O"
  system.under.test: "CSNK1D (human)"
  units.of.measure: "%"
  residual activity: 97.5
- compound.structure: "O=C(c1cc2cc(O)ccc2[nH]1)c1cc2cc(O)ccc2[nH]1"
  system.under.test: "CSNK1D (human)"
  units.of.measure: "%"
  residual activity: 92.5
- compound.structure: "O=C1NC(=O)c2c1c1c3ccccc3[nH]c1n1cncc21"
  system.under.test: "CSNK1D (human)"
  units.of.measure: "%"
  residual activity: 17.2
- compound.structure: "COc1ccc2c(c1)/C(=C/c1cnc[nH]1)C(O)=N2"
  system.under.test: "CSNK1D (human)"
  units.of.measure: "%"
  residual activity: 93.6

Name the recorded residual activity of the molecule listed here: `COc1ccc(C(=O)Nc2sc3c(c2C(N)=O)CCCC3)cc1OC`
103

Name the recorded residual activity of the molecule listed here: `Ic1cccc(CSc2nnc(-c3ccncc3)o2)c1`
103

----------
- system.under.test: DYRK2 (human) (UniProt Q92630)
- Sequence (Q92630 whole entry, looked up): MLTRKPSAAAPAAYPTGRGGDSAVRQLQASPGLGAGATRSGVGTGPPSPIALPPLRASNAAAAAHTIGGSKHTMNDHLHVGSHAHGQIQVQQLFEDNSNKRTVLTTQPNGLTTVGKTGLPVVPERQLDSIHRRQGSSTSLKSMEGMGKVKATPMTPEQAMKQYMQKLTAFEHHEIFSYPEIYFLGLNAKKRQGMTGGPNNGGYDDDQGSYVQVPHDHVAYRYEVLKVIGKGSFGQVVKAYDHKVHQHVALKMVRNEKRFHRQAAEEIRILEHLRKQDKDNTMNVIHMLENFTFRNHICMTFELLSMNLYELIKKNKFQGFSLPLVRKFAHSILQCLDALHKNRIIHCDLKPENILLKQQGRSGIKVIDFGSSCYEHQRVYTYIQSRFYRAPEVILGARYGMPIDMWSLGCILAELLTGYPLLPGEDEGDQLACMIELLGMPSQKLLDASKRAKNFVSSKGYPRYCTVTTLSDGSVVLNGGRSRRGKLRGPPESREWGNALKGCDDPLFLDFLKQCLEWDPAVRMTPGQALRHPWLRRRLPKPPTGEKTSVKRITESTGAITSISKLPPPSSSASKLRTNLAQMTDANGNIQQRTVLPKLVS
- test.details: radiometric filter-binding kinase assay, Kinase HotSpot
- measurement.conditions: compound 0.5 µM; ATP 10 µM
Consider the following compounds and their measured residual activity readings.
Please reply with the bare figure in % and do not write the unit itself.

// known answers, use as guide
- compound.structure: "COc1ccc2c(c1)c(C1=C(c3c[nH]c4ccccc34)C(=O)NC1=O)cn2CCCN(C)C"
  residual activity, %: 92.4
- compound.structure: "CS(=O)(=O)CCNCc1ccc(-c2ccc3ncnc(Nc4ccc(OCc5cccc(F)c5)c(Cl)c4)c3c2)o1"
  residual activity, %: 102

Name the recorded residual activity of the compound listed here: `C[C@@H]1CCN(C(=O)CC#N)C[C@@H]1N(C)c1ncnc2[nH]ccc12`
112

Name the recorded residual activity of the compound listed here: `c1ccc2c(-c3ccncc3)c[nH]c2c1`
77.5

Name the recorded residual activity of the compound listed here: `Fc1ccc(-c2nc3n(c2-c2ccncc2)CCS3)cc1`
101

Name the recorded residual activity of the compound listed here: `Cc1cncc2cccc(S(=O)(=O)N3CCCN(C(=O)CN)C[C@H]3C)c12`
101

Name the recorded residual activity of the compound listed here: `O=C1c2ccccc2-c2nc3nnnn3nc21`
113

Name the recorded residual activity of the compound listed here: `N#Cc1c[nH]c2c[nH]/c(=N\Cc3cccnc3)cc2/c1=N\c1ccc(F)c(Cl)c1`
95.5

Name the recorded residual activity of the compound listed here: `CN(C)c1ccc(/C=C2\C(=O)Nc3ccccc32)cc1`
100

Name the recorded residual activity of the compound listed here: `COc1ccc2c(c1)/C(=C/c1cnc[nH]1)C(O)=N2`
76.9

Name the recorded residual activity of the compound listed here: `O=C1Nc2ccc(Br)cc2/C1=C\c1cc2c([nH]1)CCCC2`
90.8
